system: ACVR2A; conditions: concentration: 1 μM, replicates: in singlicate; n = 1;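 note: KINOMEscan kinase panel screen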
QUANTITY_KIND: %Inh (%)
# output: bare number, implied unit %

// worked examples, %Inh included
MOLECULE: COc1cccc2c(-c3ccncc3)c(-c3ccc(F)cc3)nn12
MEASURE_UNIT: %
%Inh: 0
//
MOLECULE: CS(=O)(=O)c1cccc(CNc2nc(Nc3ccc4c(c3)CCC(=O)N4)ncc2C(F)(F)F)c1
MEASURE_UNIT: %
%Inh: 0
//
MOLECULE: COC(=O)Nc1nc2ccc(Oc3ccc(NC(=O)Nc4cc(C(F)(F)F)ccc4F)cc3)cc2[nH]1.Cl
MEASURE_UNIT: %
%Inh: 0
//
MOLECULE: CN(C)CCOc1ccc(-c2cc(-c3ccc(Cl)c(O)c3)c(-c3ccncc3)[nH]2)cc1.Cl.Cl
MEASURE_UNIT: %
%Inh: 0
//
MOLECULE: CNc1nccc(-c2ccc3c(N)n[nH]c3c2)n1
MEASURE_UNIT: %
%Inh: 8
//
MOLECULE: Cc1ccc(NC(=O)c2ccnc(N3CCCCC3)c2)cc1-c1ccc(C(=O)NCC2CC2)cc1
MEASURE_UNIT: %
%Inh: 0

Q: %Inh lookup needed for Cl.O=C(Nc1ccc(Oc2ccc3[nH]c(NC(=O)c4ccco4)nc3c2)cc1)Nc1cc(C(F)(F)F)ccc1F , thanks.
A: 4

Q: Given Cl.Cl.NC(CNC(=O)c1cc(Br)c(-c2ccnc3[nH]ccc23)s1)c1ccccc1 (centres unmarked) , state its recorded %Inh.
A: 0

----------
tested on: MRCKA; conditions: concentration: 1 μM, replicates: in singlicate; n = 1
QUANTITY_KIND: %Inh
Quote the value and follow it with the unit of measurement.

Consider the following illustrative entries.
MOLECULE: O=C(Nc1n[nH]c2nc(-c3ccccc3O)ccc12)C1CC1
%Inh: 4%
--
MOLECULE: CC(=O)Nc1cn2nc(Oc3cccc(NC(=O)c4cccc(C(F)(F)F)c4)c3)ccc2n1
%Inh: 7%
--
MOLECULE: Nc1ncc(-c2ccc3nccc(-c4ccncc4)c3c2)cc1S(=O)(=O)N1CCCCC1
%Inh: 12%
--
MOLECULE: Cc1ccc(NC(=O)c2ccnc(N3CCCCC3)c2)cc1-c1ccc(C(=O)NCC2CC2)cc1
%Inh: 0%
--
MOLECULE: COc1cccc(C2=C(Nc3cccc(O)c3)C(=O)NC2=O)c1
%Inh: 18%

Q: Hello, I am looking for reported %Inh with MRCKA for Cl.Cl.NCC(NC(=O)c1cc(-c2cccnc2)c(-c2ccnc3[nH]ccc23)s1)c1ccccc1 (stereo not drawn) . Could you help?
A: 39%

Q: For MRCKA, provide %Inh of O=C(O)C(F)(F)F.O=c1[nH]ccc2nc(N[C@@H]3CCNC3)nc(Nc3cc(Cl)cc(Cl)c3)c12 please.
A: 24%

Q: Request - read-out %Inh | tested on MRCKA | molecule Cc1ccc(O)cc1Nc1ccnc2cc(-c3ccc(CN4CCCCC4)o3)ccc12
A: 0%

Q: Find %Inh (MRCKA) for the entry Cn1cc(-c2cnc(N)c3c(-c4ccc5c(c4)CCN5C(=O)Cc4ccccc4)csc23)cn1
A: 10%

----------
tested on: AURKB; settings: concentration: 1 μM, replicates: in singlicate; n = 1
QUANTITY_KIND: %Inh (%)
Hi! Could you send only the number? It should be in %, unit omitted.

// below: answered molecules
MOLECULE: Fc1cc(Cl)ccc1Nc1ccnc2cc(-c3ccc(CN4CCSCC4)o3)ccc12 [GW560106]
QUANTITY_KIND: %Inh
NUMBER: 0
//
MOLECULE: N#Cc1cnc2cc(-c3cnc(CNCCN4CCOCC4)s3)ccc2c1Nc1ccc(Oc2ccccc2)cc1 [GW664114]
QUANTITY_KIND: %Inh
NUMBER: 39

Q: Form field: %Inh recorded for COC(=O)Nc1nc2cc(Oc3ccc(NC(=O)Nc4cccc(SC)c4)cc3)ccc2[nH]1.Cl [GW697999] with AURKB (enter value)
A: 92.5

Q: Enter reported %Inh observed with AURKB for O=C(Nc1c(F)cccc1F)c1cc(C(=O)c2ccccc2F)c[nH]1 [GSK1326180]
A: 0

Q: Notebook: pull reported %Inh for AURKB, entry CN(C)CCNS(=O)(=O)c1ccc(-c2ccnc3[nH]ccc23)cc1 [GSK977620]
A: 57

----------
Recorded %Inh, one value per entry.
tested on: PIP5K1C; settings: concentration: 1 μM, replicates: in singlicate; n = 1

STRUCTURE_STRING: CN(C)c1ncnc2nc[nH]c12
TARGET_OF_ASSAY: PIP5K1C
%Inh: 0%

Q: Report %Inh for Cn1cc(-c2cnc(N)c3c(-c4ccc5c(c4)CCN5C(=O)Cc4ccccc4)csc23)cn1 tested on PIP5K1C.
A: 0%

Q: Given the entry COc1cc(Nc2nccc(N3CCC(NS(=O)(=O)c4ccc(NC(C)=O)cc4)CC3)n2)cc(OC)c1OC , what %Inh was observed with PIP5K1C?
A: 56%

Q: Observed %Inh on PIP5K1C for COc1ccc(NC(=O)c2ccoc2)cc1-c1ccc(C(=O)NCC2CC2)cc1 , please.
A: 0%

Q: // fetch PIP5K1C %Inh for Fc1cc(Cl)ccc1Nc1ccnc2cc(-c3ccc(CN4CCOCC4)o3)ccc12
A: 44%

Q: Kindly state the measured %Inh obtained for CC(C)(C)c1ccc(C(=O)Nc2cn3cc(-n4ccnc4)ccc3n2)cc1 with PIP5K1C.
A: 4%

Q: Lab note: need %Inh with PIP5K1C for entry Cc1ccc(NC(=O)c2cccc(N3CCCCC3)c2)cc1-c1ccc(C(=O)NCC2CC2)cc1 , please look it up.
A: 25%

Q: Give the reported %Inh for Cl.N#CCc1ccc(Nc2nccc(Nc3ccc(Oc4ccccc4)cc3)n2)cc1 (system: PIP5K1C).
A: 34%

Q: Identify the measured %Inh of COc1cccc2c(-c3ccncc3)c(-c3ccc(F)cc3)nn12 for PIP5K1C.
A: 64%

----------
tested on: CAMK4; settings: concentration: 1 μM, replicates: in singlicate; n = 1
QUANTITY_KIND: %Inh (%)
Only the number, expressed in %, is required.

Sample records with %Inh:
STRUCTURE_STRING: COc1cccc(NC(=O)NCCNc2ccnc(Nc3ccc(F)cc3)n2)c1
QUANTITY_KIND: %Inh
MEASURE_UNIT: %
NUMBER: 0

STRUCTURE_STRING: CN1CCN(Cc2ccc(NC(=O)Nc3ccc(N(C)c4ccnc(Nc5ccc(CS(C)(=O)=O)cc5)n4)cc3)cc2)CC1.Cl
QUANTITY_KIND: %Inh
MEASURE_UNIT: %
NUMBER: 0

STRUCTURE_STRING: Cc1ccc(NC(=O)c2cccc(N3CCCCC3)c2)cc1-c1ccc(C(=O)NCC2CC2)cc1
QUANTITY_KIND: %Inh
MEASURE_UNIT: %
NUMBER: 1

Turning now to a further record.
Q: Reported %Inh, compound CN(c1ccc(NC(=O)Nc2cccc(Cl)c2)cc1)c1ccnc(N)n1.Cl : ____
A: 14

----------
tested on: MEK2; construct: gene MAP2K2; conditions: concentration: 1 μM, replicates: in singlicate; n = 1
QUANTITY_KIND: %Inh (%)
Use % as the unit, but write only the number.

Q: Which measured %Inh value corresponds to Cc1ccc(NC(=O)c2cccc(N3CCCCC3)c2)cc1-c1ccc(C(=O)NCC2CC2)cc1 ?
A: 0

Q: Which %Inh is reported for this compound? COc1cccc(NC(=O)NCCNc2ccnc(Nc3ccc(F)cc3)n2)c1
A: 0

Q: Need %Inh of O=C(Nc1n[nH]c2nc(-c3ccccc3)ccc12)C1CC1 , thanks.
A: 0

Q: // lookup %Inh for Cc1cccc(Nc2nc(NCCN)ncc2C(N)=O)c1
A: 9

Q: // query %Inh value for entry Nc1ncc(-c2cn[nH]c2)c2scc(-c3ccc4c(c3)CCN4C(=O)Cc3ccccc3)c12
A: 0

----------
tested on: HCK; conditions: concentration: 1 μM, replicates: in singlicate; n = 1
Is %Inh at least 90%? Then condition met. If not, condition not met.

Before answering, review these 3 worked examples.
STRUCTURE_STRING: CC(=O)Nc1cn2nc(Oc3cccc(NC(=O)c4cccc(C(F)(F)F)c4)c3)ccc2n1
LABEL_VALUE: condition met
//
STRUCTURE_STRING: CC(C)(C)c1ccc(C(=O)Nc2cn3cc(-n4ccnc4)ccc3n2)cc1
LABEL_VALUE: condition not met
//
STRUCTURE_STRING: O=C(Nc1n[nH]c2nc(-c3cccc(O)c3)ccc12)C1CC1
LABEL_VALUE: condition not met

Q: # bool: %Inh of Cl.N#CCc1ccc(Nc2nccc(Nc3ccc(Oc4ccccc4)cc3)n2)cc1 >= 90%
A: condition met

Q: Say whether Nc1ncnc2scc(-c3ccc(NC(=O)Cc4cc(F)ccc4F)cc3)c12.O=C(O)C(F)(F)F shows %Inh of 90% or more.
A: condition not met
